system: anti-desmoglein-3 scFv antibody binding to human DSG3; assay: inhibitors of anti-DSG3 scFv binding to DSG3, pilot screen, biochemical, validation compound set, bead-based, flow cytometry (AID 588368); conditions: Protein G beads, DSG3-Fc, scFv-GFP binding, at 10 µM, hits give low values;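 note: signal is the median channel fluorescence of bead-bound GFP antibody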
Readout kind: binding (% of control) (%)
Lab book: enter the figure in %, no units written.

IN: For the compound `CNC[C@H](O)c1cccc(O)c1` , what binding (% of control) is on record?
OUT: 102

IN: Queued: `Cc1cc(-c2ccccc2)nnc1NCCN1CCOCC1`
OUT: 109

IN: Follow-up entry: `CCOCc1cc(C)[nH]c(=O)c1C#N`
OUT: 102

IN: Can you check OC(CCN1CCCCC1)(c1ccccc1)C1CCCCC1 (stereo unspecified) next?
OUT: 108

IN: Same question, `Cc1ccccc1OCCSc1nc2ncnc(N)c2[nH]1` this time
OUT: 96.7

IN: And what about the compound `O=C(CCCCCCCC(=O)c1ccccc1)c1ccccc1` ?
OUT: 98.9

IN: Please give the result for `CC#C[C@]1(O)CC[C@H]2[C@@H]3CCC4=CC(=O)CCC4=C3[C@@H](c3ccc(N(C)C)cc3)C[C@@]21C` too.
OUT: 94.6

IN: Same lookup for `COc1ccc(C(=O)/C=C/c2ccc(OC(=O)c3cc(OC)c(OC)c(OC)c3)cc2)cc1` , please.
OUT: 97.4

IN: Quick one: `Cn1c2ccccc2c2cc(/C=C(\NC(=O)c3ccccc3)C(=O)O)ccc21`
OUT: 96.5

IN: `CC(C)Cc1cc(C(=O)N2CCC(N3CCC(C(=O)N4CCCC4)CC3)CC2)n[nH]1` , same question.
OUT: 107

IN: Similarly, `COc1ccc(CNC(=O)C2CCN(C(=O)[C@@H](CC(C)C)NC(=O)OC(C)(C)C)CC2)cc1` ?
OUT: 98.7

IN: Same thing, different compound: COc1ccc(C(=O)C2CCCCC2=O)cc1 (stereo unspecified)
OUT: 101

IN: Record: `Cc1nc2sccn2c(=O)c1CCN1CCC(=C(c2ccc(F)cc2)c2ccc(F)cc2)CC1`
OUT: 109

IN: Now the compound `COc1ccc(CN(C)CCc2ccccn2)cc1OC`
OUT: 98.7

IN: And what about the compound Cc1cccc(N2C(=O)C3C(c4ccccc4)OC4(C(=O)c5ccccc5C4=O)C3C2=O)c1 (stereo unspecified) ?
OUT: 104

IN: COC1CCCCC1Nc1ccc(C)c(C)c1 (stereo unspecified) ?
OUT: 94.7
